- system.under.test: Ubiquitin carboxyl-terminal hydrolase 10 (Homo sapiens) (UniProt Q14694)
- Sequence (Q14694 whole entry, looked up): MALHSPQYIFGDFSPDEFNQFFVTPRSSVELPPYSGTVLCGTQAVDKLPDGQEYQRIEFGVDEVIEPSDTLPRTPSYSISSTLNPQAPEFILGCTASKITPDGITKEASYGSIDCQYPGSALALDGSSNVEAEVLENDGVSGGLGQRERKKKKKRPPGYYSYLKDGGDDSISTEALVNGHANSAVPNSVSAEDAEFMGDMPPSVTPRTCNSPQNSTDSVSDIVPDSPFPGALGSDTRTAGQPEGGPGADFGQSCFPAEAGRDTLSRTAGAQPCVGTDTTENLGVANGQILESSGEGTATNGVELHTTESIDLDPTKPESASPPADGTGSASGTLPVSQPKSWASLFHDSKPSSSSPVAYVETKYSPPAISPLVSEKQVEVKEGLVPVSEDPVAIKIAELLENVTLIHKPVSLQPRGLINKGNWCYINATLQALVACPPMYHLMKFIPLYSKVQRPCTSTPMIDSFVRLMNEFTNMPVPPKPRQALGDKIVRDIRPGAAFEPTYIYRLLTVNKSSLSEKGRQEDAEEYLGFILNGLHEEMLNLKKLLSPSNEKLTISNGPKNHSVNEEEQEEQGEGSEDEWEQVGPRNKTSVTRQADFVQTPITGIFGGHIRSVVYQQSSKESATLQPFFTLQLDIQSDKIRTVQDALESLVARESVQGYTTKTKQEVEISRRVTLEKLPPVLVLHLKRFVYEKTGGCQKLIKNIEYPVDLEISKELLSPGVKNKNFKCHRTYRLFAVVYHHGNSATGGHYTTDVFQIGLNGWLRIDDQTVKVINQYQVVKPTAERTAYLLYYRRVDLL
- experimental.details: ubiquitin-specific protease 10 DUB inhibitors, concentration-effect, biochemical, verification of primary screen actives (AID 1645863);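 further: potency values describe inhibition of USP10 cleavage of a fluorogenic ubiquitin substrate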
- study.conditions: USP10 deubiquitinase enzymatic assay
Active and inactive are the calls of the source. How the calls were made is not given here.
Permitted responses: active, inactive

Consider the worked cases shown below.
| compound | system.under.test | group |
| --- | --- | --- |
| COc1ccc(NC(=O)[C@H](C)NC(=O)c2cc3c(OC)cccc3[nH]2)cc1Cl | Ubiquitin carboxyl-terminal hydrolase 10 (Homo sapiens) (UniProt Q14694) | active |
| CCc1nc(SCC(=O)Nc2ccc(Cl)c(Cl)c2)c2oc3ccccc3c2n1 | Ubiquitin carboxyl-terminal hydrolase 10 (Homo sapiens) (UniProt Q14694) | active |
| COc1ccc(CCNC(=O)Cn2c(=O)n(-c3ccc(CC(=O)NCCc4ccccc4)cc3)c(=O)c3ccccc32)cc1OC | Ubiquitin carboxyl-terminal hydrolase 10 (Homo sapiens) (UniProt Q14694) | inactive |

QUERY: Tell me the recorded outcome of this test for CCCCCC(=O)C(CCCC)c1oc(=O)c(CCCC)c(O)c1CCCC (stereo not given) .
RESULT: active

QUERY: Assay outcome for COc1ccc(-c2cc3n(c(=N)c2C#N)CCc2cc4c(cc2-3)OCO4)cc1O : what was it?
RESULT: inactive

QUERY: Hi, do you know how CCCCCCC1CCC(O)CC(O)CC(O)CC(O)CC(O)CC(O)/C(C)=C/C=C\C=C/C=C/C=C/[C@H](O)[C@@H](C)OC1=O (stereo not given in full) came out in this test?
RESULT: inactive

QUERY: Per the assay record, what outcome was assigned to COc1ccc(OC)c2c(C)cc(N3CC(C)CC(C)C3)nc12 (stereo not given) ?
RESULT: inactive

QUERY: Called result for Cc1cc(C(F)(F)F)n2nc(C3CCN(C(=O)c4cnn(C)c4C)C3)cc2n1 (stereo not given)
RESULT: inactive

QUERY: Recorded test outcome, item O=C1CC(c2nc3ccccc3n2CCOc2ccc(Cl)cc2)CN1c1ccccc1 (stereo not given)
RESULT: active

QUERY: Record request — test call for COc1ccc(Cl)cc1NC(=O)Cn1c(=O)n(CCCCC(=O)NCCc2ccccc2)c(=O)c2ccccc21
RESULT: active

QUERY: # lookup: test call for CCCn1cc(-c2nc(-c3ccccn3)no2)c(=O)c2ccccc21
RESULT: inactive

QUERY: Which outcome was entered for the compound CCc1ccccc1NC(=O)Cn1c(SCc2ccc(F)cc2)nc2cccnc21 in this test?
RESULT: active

QUERY: Which result was noted for this compound in the test: Cc1[nH]nc(NC(=O)C2COc3ccccc3O2)c1-c1ccccc1 (stereo not given)
RESULT: inactive

QUERY: GET /call?item= Cc1nc(N2CCN(c3ccc(Cl)cc3)CC2)c2oc3ccccc3c2n1 returns the recorded outcome of this test.
RESULT: active

QUERY: State the result this test recorded for CC(C)Cc1nc2sc3c(SCC(=O)N4CCC(C)CC4)ncnc3c2c2c1COC(C)(C)C2 .
RESULT: inactive

QUERY: What did the test return for Cn1c(=O)c2ncnnc2n(C)c1=O ?
RESULT: active

====

- system.under.test: Ubiquitin carboxyl-terminal hydrolase 10 (Homo sapiens) (UniProt Q14694)
- experimental.details: ubiquitin-specific protease 10 DUB inhibitors, concentration-effect, biochemical, verification of primary screen actives (AID 1645863);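 further: potency values describe inhibition of USP10 cleavage of a fluorogenic ubiquitin substrate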
- study.conditions: USP10 deubiquitinase enzymatic assay
Calls of active or inactive are those of the source. No rule for the calls is given here.
quantity.kind: IC50

| molecule | IC50 |
| --- | --- |
| CCOc1ccc(Oc2nc(CN3CCCC3)nc3sc(C)c(C)c23)cc1 | > 40 µM (inactive) |
| Cc1ccc2c(CNCCC3=CCCCC3)c(C(=O)O)n(C)c2c1 | > 40 µM (inactive) |
| Cc1cc(NS(=O)(=O)c2ccc(NC(=O)c3ccc(N4CCCC4)c([N+](=O)[O-])c3)cc2)no1 | 34.8 µM |

QUERY: Return reported IC50; argument: O=C(NCCc1nc2ccccc2n1CCCOc1ccccc1Cl)C1CCCCC1
RESULT: 32.8 µM

QUERY: Report IC50 for O=C(NC1CCCCCC1)c1cccc(S(=O)(=O)Nc2cc(C(F)(F)F)ccc2Cl)c1 please.
RESULT: 21.1 µM

QUERY: Any idea what its IC50 is? The molecule is CCOc1ccc(-c2noc(-c3nn(-c4cccc(OC)c4)ccc3=O)n2)cc1
RESULT: > 40 µM (inactive)

QUERY: Consider the molecule shown here: Cc1ccccc1-c1noc(-c2ccccc2OCC(=O)NC(C)C)n1 What is its recorded IC50?
RESULT: > 40 µM (inactive)

QUERY: GET /values?readout=IC50&item= Cc1cc(=O)n(CC(=O)Nc2ccc3c(c2)OCO3)c2c1c(-c1ccccc1)nn2-c1ccccc1
RESULT: > 40 µM (inactive)

QUERY: Which value of IC50 has been reported for Cc1cccc(-c2nnn3c2nc(NCC2CCCO2)c2ccccc23)c1 (stereo unspecified) in the records?
RESULT: > 40 µM (inactive)

QUERY: Please look up its IC50: O=c1[nH]c(C2CCN(S(=O)(=O)c3ccc(S(=O)(=O)NC4CCCCC4)cc3)CC2)nc2c1nnn2Cc1c(F)cccc1Cl
RESULT: 16.4 µM
